molecular target: Orexin receptor type 2 (Homo sapiens); experiment: Fluorescent Imaging Plate Reader (FLIPR) Assay: Orexin antagonist activity was determined by measuring changes in intracellular calcium levels using a Ca2+ sensitive fluorescent dye. The changes in fluorescent signal were monitored by Fluorescent Imaging Plate Reader (FLIPR) technology available from Molecular Devices, LLC, U.S.A. Orexin mediated increases in intracellular Ca2+ concentration were readily detected upon activation with orexin-A. Twenty-four hours prior to the assay, RBL-2H3 cells stably expressing either human orexin receptor 1 or human orexin receptor 2 were seeded in cell culture medium in black, clear-bottom 384-well plates (commercially available from Corning Inc., U.S.A.) and grown overnight at 37° C., 5% CO2. On the day of the assay, cell culture media was removed and cells were loaded with Calcium 5 Dye (commercially sold by Molecular Devices, LLC, U.S.A.) for 1 hour at 37° C., 5% CO2. Test compounds (at 10 point half log concentration response curves from 10 uM) were added to cells for 15 minutes prior to the addition of orexin-A to all wells, to achieve a final concentration that produces approximately an 80% maximal response. The IC50 values were determined from ten point concentration response curves. Curves were generated using the average of two wells for each data point.
Sequence (O43614 whole entry): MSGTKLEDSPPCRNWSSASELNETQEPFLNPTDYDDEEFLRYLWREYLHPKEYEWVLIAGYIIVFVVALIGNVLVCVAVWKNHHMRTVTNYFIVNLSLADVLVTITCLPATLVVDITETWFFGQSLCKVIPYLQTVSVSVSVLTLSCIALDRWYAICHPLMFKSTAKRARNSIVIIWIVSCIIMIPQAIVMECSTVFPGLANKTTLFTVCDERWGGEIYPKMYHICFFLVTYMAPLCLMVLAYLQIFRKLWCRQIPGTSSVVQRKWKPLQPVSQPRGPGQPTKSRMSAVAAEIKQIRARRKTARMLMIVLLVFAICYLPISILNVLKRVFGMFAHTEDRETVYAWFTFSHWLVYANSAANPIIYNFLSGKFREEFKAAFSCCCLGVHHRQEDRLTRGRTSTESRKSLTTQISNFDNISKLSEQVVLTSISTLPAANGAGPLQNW
Reported pIC50 by item:
// pIC50 here means minus log10 of the molar concentration (mol/L)

Compound	Test Result
COc1cccc(OC)c1C(=O)N[C@@H]1COC[C@@H]1Nc1nc2ccc(Cl)cc2s1 (relative stereo)	5.85

Input: Query pIC50 on Orexin receptor type 2 (Homo sapiens) for "CCOc1cccc(OCC)c1C(=O)N[C@@H]1CCC[C@@H]1Nc1nc2ccccc2o1"
Output: 5.92
